Quick reference for yeast fitness among some variants
B1: tRNA (parent)
chain: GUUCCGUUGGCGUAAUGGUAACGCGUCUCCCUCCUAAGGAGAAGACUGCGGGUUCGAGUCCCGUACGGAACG

variants of: B1; test: yeast fitness relative to wild type (ratio to wild type); higher = fitter; tRNA-Arg(CCU), competitive growth, 37 C, YPD
Fewer inactive variants are shown than the library holds.
OBSERVABLE: yeast fitness

>>> recorded_measurement("C5A G23C G50C")
"≤ 0.5"
>>> recorded_measurement("G39C A43G A57C")
"≤ 0.5"
>>> recorded_measurement("A21G G48A")
0.92
>>> recorded_measurement("G25A A45U A57U")
"≤ 0.5"
>>> recorded_measurement("U2A G9A C11U G51C C55U A69C A70U")
"≤ 0.5"
>>> recorded_measurement("A37C C49U C55A C60A")
"≤ 0.5"
>>> recorded_measurement("C5U U7G A40G A57U")
"≤ 0.5"
>>> recorded_measurement("A37G C46G G56A")
0.624
>>> recorded_measurement("C27U C30U C46U U54G")
"≤ 0.5"
>>> recorded_measurement("C55A A57G U64A")
"≤ 0.5"
>>> recorded_measurement("C31G A43U C46G A70U")
0.527
>>> recorded_measurement("U3A U7G A14U G25A G41C C46U")
"≤ 0.5"
>>> recorded_measurement("C30G U35A A65C")
"≤ 0.5"
>>> recorded_measurement("C11U A15U U19G A20G G67C")
"≤ 0.5"
>>> recorded_measurement("G6C G50C A69U")
0.554
>>> recorded_measurement("C11G G12A C31G U59G A65G")
"≤ 0.5"
>>> recorded_measurement("A42C U47A G63C A69C")
0.578
>>> recorded_measurement("G9A C24A U59A")
"≤ 0.5"
>>> recorded_measurement("G9C C55A A69C")
"≤ 0.5"
>>> recorded_measurement("C30U G48C G68C")
0.636
>>> recorded_measurement("G9A A36C A40C A45C")
"≤ 0.5"
>>> recorded_measurement("C22G C24A G44C G51A G58C U59A")
"≤ 0.5"
>>> recorded_measurement("U32C A70C")
0.991
>>> recorded_measurement("U7A G10C C27G U32A G56A A57U")
"≤ 0.5"
>>> recorded_measurement("A20G C29A C34G A42C C49G G68A")
"≤ 0.5"
